# System: Calf thymus DNA
# procedureSummary: Binding affinity to calf thymus DNA assessed as change in melting temperature
# Type: nucleic-acid assay
# particulars: Bos taurus
assayMetric: ΔTm (°C)

Below, each entry is followed by its recorded ΔTm result.
itemSmiles	ΔTm (°C)
COc1cc2cnc3c4ccnc(NCCN(C)C)c4ccc3c2cc1OC	9
CN(C)CCNc1ccc2c(ccc3c4cc5c(cc4cnc23)OCO5)n1	4
COc1cc2cnc3c4ccc(NCCN(C)C)nc4ccc3c2cc1OC	12
CN(C)CCCNc1nccc2c1ccc1c3cc4c(cc3cnc21)OCO4	14
CN(C)CCNc1nccc2c1ccc1c3cc4c(cc3cnc21)OCO4	7

a = CCN(CC)CCNc1ccc2c(ccc3c4cc(OC)c(OC)cc4cnc23)n1
b = CCN(CC)CCCNc1ccc2c(ccc3c4cc5c(cc4cnc23)OCO5)n1
c = COc1cc2cnc3c4ccc(NCCCN(C)C)nc4ccc3c2cc1OC
hey, can you rank those molecules up there by ΔTm? biggest number first please List the labels according to the requested ordering.
b, a, c
(b: 11 °C, a: 5 °C, c: 0 °C)

P = CCN(CC)CCNc1ccc2c(ccc3c4cc5c(cc4cnc23)OCO5)n1
Q = CCN(CC)CCNc1nccc2c1ccc1c3cc(OC)c(OC)cc3cnc21
Which one would you say has the larger ΔTm value: P , or Q ? Pick one and reply with its label.
Q
(Q: 9 °C, P: 5 °C)

====

# targetOrTestSystem: DNA topoisomerase 2-alpha (Homo sapiens)
# procedureSummary: Inhibition of human recombinant topoisomerase 2-mediated relaxation of supercoiled […] by agarose gel electrophoresis
Calls of active or inactive are those of the source. The rule behind the calls is not given here.
assayMetric: Activity

itemSmiles	result
CCN(CC)CCNc1ccc2c(ccc3c4cc5c(cc4cnc23)OCO5)n1	Active
COc1cc2cnc3c4ccnc(NCCCN(C)C)c4ccc3c2cc1OC	Active
CCN(CC)CCCNc1ccc2c(ccc3c4cc5c(cc4cnc23)OCO5)n1	Active
